Tested on: pseudotyped VSV G particles (VSVpp)
experiment_description: microbe, parasite or virus in culture
Assay type: cell-based, vesicular stomatitis virus
cond: Vesicular stomatitis virus, 72 h, read-out: VSVpp (EC50, μM)
value_type: log10(EC50) (log10 of the value in µM)
Answers are given as log10 of EC50 in µM.

Exercise: Entry Nc1ccc(-c2c(Cl)cc(Nc3n[nH]c(N)n3)cc2Cl)cn1 [Compound 4] has what log10(EC50)?
Key: 0.15

Exercise: Can you handle Nc1nc(Nc2cc(Cl)c(C3=NCCCN3)c(Cl)c2)n[nH]1 [Compound 31] next?
Key: 0.67

Exercise: Can you handle Nc1nc(Nc2cc(Cl)c(-c3ccncc3)c(Cl)c2)n[nH]1 [Compound 35] next?
Key: 0.40

Exercise: Can you handle Nc1ncc(-c2c(Cl)cc(Nc3n[nH]c(N)n3)cc2Cl)cn1 [Compound 5] next?
Key: -0.40

Exercise: Can you handle Nc1nc(Nc2cc(Cl)c(-c3ccnnc3)c(Cl)c2)n[nH]1 [Compound 33] next?
Key: 1.03

Exercise: Can you handle Nc1nc(Nc2cc(Cl)c(-c3ccc(Cl)s3)c(Cl)c2)n[nH]1 [Compound 36] next?
Key: 1.08

----------
Tested on: pseudotyped VSV G particles (VSVpp)
experiment_description: microbe, parasite or virus in culture
Assay type: cell-based, vesicular stomatitis virus
cond: Vesicular stomatitis virus, 72 h, read-out: VSVpp (EC50, μM)
value_type: log10 EC50 (log10 of the value in µM)
Answers are given as log10 of EC50 in µM.

Exercise: Hi! What's the reported log10 EC50 for COc1ccc(-c2c(Cl)cc(Nc3n[nH]c(N)n3)cc2Cl)cn1 [Compound 1] on pseudotyped VSV G particles (VSVpp)?
Key: 0.57

Exercise: Can you handle COc1ncc(-c2c(Cl)cc(Nc3n[nH]c(N)n3)cc2Cl)cn1 [Compound 40] next?
Key: 0.52

Exercise: Can you handle Nc1n[nH]c(Nc2cc(F)c(-c3ccc(F)nc3)c(C(F)(F)F)c2)n1 [Compound 9] next?
Key: 1.49

Exercise: Can you handle Nc1nc(Nc2ccc(-n3ccccc3=O)c(Cl)c2)n[nH]1 [Compound 29] next?
Key: 0.91

Exercise: Can you handle Nc1nc(Nc2cc(Cl)c(-c3ccc(C(F)(F)F)nc3)c(Cl)c2)n[nH]1 [Compound 41] next?
Key: 1.51

Exercise: Can you handle Nc1nc(Nc2cc(Cl)c(-n3ccccc3=O)c(Cl)c2)n[nH]1 [Compound 30] next?
Key: 0.75

Exercise: Can you handle Nc1nc(Nc2cc(Cl)c(-n3cccn3)c(Cl)c2)n[nH]1 [Compound 17] next?
Key: 1.54

Exercise: Can you handle Nc1nc(Nc2cc(Cl)c(-c3cncnc3)c(Cl)c2)n[nH]1 [Compound 39] next?
Key: 0.71

Exercise: Can you handle COc1cccc(-c2c(Cl)cc(Nc3n[nH]c(N)n3)cc2Cl)n1 [Compound 44] next?
Key: 0.89

Exercise: Can you handle CNC(=O)c1ccc(-c2c(Cl)cc(Nc3n[nH]c(N)n3)cc2C(F)(F)F)cn1 [Compound 32] next?
Key: 1.34

Exercise: Can you handle CC(=O)c1sccc1-c1c(Cl)cc(Nc2n[nH]c(N)n2)cc1Cl [Compound 34] next?
Key: 0.26

Exercise: Can you handle Nc1n[nH]c(Nc2cc(F)c(-c3cccnc3)c(C(F)(F)F)c2)n1 [Compound 10] next?
Key: 1.53

Exercise: Can you handle CS(=O)(=O)c1ccc(-c2c(Cl)cc(Nc3nc(N)n[nH]3)cc2Cl)cn1 [Compound 11] next?
Key: 0.34
